Compiled record: IC50 values for JNK1α1 (Homo sapiens) across several sources.

[
  {
    "Molecule": "O=C(NCCCF)c1cc(-n2ncc3cc(Oc4ccccc4Cl)cnc32)cs1",
    "IC50": "200 to 1000 nM"
  },
  {
    "Molecule": "c1csc(-c2cnc3[nH]cc(-c4ccoc4)c3c2)c1",
    "IC50": "< 500 nM"
  },
  {
    "Molecule": "CC(CCO)n1c(=O)ccc2cnc(NC3CCCCC3)nc21 (centres unmarked)",
    "IC50": "70.1 nM"
  },
  {
    "Molecule": "Cc1cscc1-c1cccc2c1ccn2-c1ccnc(N[C@H]2CC[C@H](C(=O)N3CCC(O)CC3)CC2)n1",
    "IC50": "33.1 nM"
  },
  {
    "Molecule": "CC(C)(C)Nc1ncc(C(N)=O)c(Nc2cccc(CO)c2)n1",
    "IC50": "< 100 nM"
  },
  {
    "Molecule": "CC1CCC(c2cnc3[nH]cc(-c4cnn(C)c4)c3c2)CC1 (centres unmarked)",
    "IC50": "178 nM"
  },
  {
    "Molecule": "O=C(Cn1c(=O)ccc2cc(OC(F)(F)F)ccc21)Nc1scc(Br)c1-c1ncn[nH]1",
    "IC50": "< 100 nM"
  },
  {
    "Molecule": "CN(C)CCN([C@H]1CC[C@H](Nc2nccc(-n3ccc4c(N5CCN(C(=O)CC#N)CC5)cccc43)n2)CC1)S(C)(=O)=O",
    "IC50": "3.7 nM"
  },
  {
    "Molecule": "O=C(Cn1c(=O)ccn2nc(C(F)(F)F)cc12)Nc1scc(Br)c1-c1ncn[nH]1",
    "IC50": "< 100 nM"
  },
  {
    "Molecule": "N#Cc1csc(NC(=O)Cn2c(=O)ccc3cc(C(F)(F)F)ccc32)c1-c1ncco1",
    "IC50": "< 100 nM"
  },
  {
    "Molecule": "CS(=O)(=O)N[C@H]1CC[C@H](Nc2nccc(-c3cnc4ccccn34)n2)CC1",
    "IC50": "56.7 nM"
  },
  {
    "Molecule": "CS(=O)(=O)c1cccc(-c2cnc3[nH]cc(C(=O)c4cc(O)ccc4F)c3c2)c1",
    "IC50": "≤ 10000 nM"
  },
  {
    "Molecule": "CNC(=O)c1cc(-n2ncc3cc(Nc4ccccc4OC)c(F)cc32)cs1",
    "IC50": "> 1000 nM"
  },
  {
    "Molecule": "Cc1nc(-c2sccc2NC(=O)Cc2cccc3ccccc23)n(C)n1",
    "IC50": "> 10000 nM"
  },
  {
    "Molecule": "CN1CCN(CCCn2cnc(-c3c(Cl)csc3NC(=O)Cn3c(=O)ccc4cc(C(F)(F)F)ccc43)n2)CC1",
    "IC50": "< 100 nM"
  },
  {
    "Molecule": "O=C(Cn1c(=O)ccc2ccc(C(F)(F)F)cc21)Nc1scc(Br)c1-c1ncn[nH]1",
    "IC50": "< 100 nM"
  },
  {
    "Molecule": "COc1cccc(C(=O)c2c[nH]c3ncc(-c4ccccc4)cc23)c1F",
    "IC50": "≤ 10000 nM"
  }
]

* * *

Compiled record: IC50 values for JNK1α1 (Homo sapiens, UniProt P45983) across several sources.
Readout Kind: IC50

[
  {
    "Sample Smiles": "COc1ccc(CC(=O)Nc2ccsc2-n2cccn2)cc1",
    "Result": "> 10 µM"
  },
  {
    "Sample Smiles": "Cc1nc(-c2sccc2NC(=O)CN2C(=O)CCc3ccccc32)c[nH]1",
    "Result": "> 10 µM"
  },
  {
    "Sample Smiles": "COc1ccc(C(=O)c2c[nH]c3ncc(-c4cccc(C(N)=O)c4)cc23)c(F)c1",
    "Result": "≤ 10 µM"
  },
  {
    "Sample Smiles": "N#Cc1csc(NC(=O)CN2C(=O)CCc3ncccc32)c1-c1nc2ccccc2s1",
    "Result": "0.1 to 10 µM"
  },
  {
    "Sample Smiles": "C[C@@H]1CC[C@@H](Nc2nc(NC(C)(C)C)ncc2O)C[C@H]1O",
    "Result": "> 1 µM"
  },
  {
    "Sample Smiles": "CCc1n[nH]c(-c2c(Cl)csc2NC(=O)CN2C(=O)CCc3ncccc32)n1",
    "Result": "< 0.1 µM"
  },
  {
    "Sample Smiles": "C[C@@H]1CC[C@@H](Nc2nc(NC(C)(C)C)ncc2-n2ccnc2)C[C@H]1O",
    "Result": "> 1 µM"
  },
  {
    "Sample Smiles": "O=C(Cc1cccc2ccncc12)Nc1scc(Br)c1-c1ncn[nH]1",
    "Result": "< 0.1 µM"
  },
  {
    "Sample Smiles": "N#Cc1csc(NC(=O)CN2C(=O)CCc3ccccc32)c1-c1ncn[nH]1",
    "Result": "< 0.1 µM"
  },
  {
    "Sample Smiles": "CNC(=O)c1cc(-n2ncc3cc(Nc4ccccc4Cl)cnc32)c(C)s1",
    "Result": "0.2 to 1 µM"
  },
  {
    "Sample Smiles": "COCCOc1ccc(F)c(C(=O)c2c[nH]c3ncc(-c4cccnc4)cc23)c1F",
    "Result": "≤ 10 µM"
  },
  {
    "Sample Smiles": "Cc1ccncc1-c1cccc2c1ccn2-c1ccnc(N[C@H]2CC[C@H](C(=O)N3CCC(O)CC3)CC2)n1",
    "Result": "0.0877 µM"
  },
  {
    "Sample Smiles": "O=C(c1c(F)ccc(NCc2ccccc2)c1F)c1c[nH]c2ncc(-c3cccnc3)cc12",
    "Result": "≤ 10 µM"
  },
  {
    "Sample Smiles": "O=C(Cn1c(=O)ccc2cc(C(F)(F)F)ccc21)Nc1ccsc1-c1cscn1",
    "Result": "< 0.1 µM"
  },
  {
    "Sample Smiles": "O=C(CN1C(=O)CCc2ncccc21)Nc1scc(Br)c1-c1ncn[nH]1",
    "Result": "< 0.1 µM"
  },
  {
    "Sample Smiles": "O=[N+]([O-])c1cccc(Cc2c[nH]c3ncc(-c4cccnc4)cc23)c1",
    "Result": "≤ 10 µM"
  },
  {
    "Sample Smiles": "O=C(Cc1c(F)ccc2ncccc12)Nc1scc(Br)c1-c1ncn[nH]1",
    "Result": "< 0.1 µM"
  },
  {
    "Sample Smiles": "NC(=O)c1cccc(-c2cnc3[nH]cc(C(=O)c4ccccc4O)c3c2)c1",
    "Result": "≤ 10 µM"
  },
  {
    "Sample Smiles": "CS(=O)(=O)CCn1ccc(Nc2ccnc(N[C@H]3CC[C@H](O)CC3)n2)n1",
    "Result": "> 1 µM"
  },
  {
    "Sample Smiles": "COC(=O)c1c(Cc2ccc(C(=O)N[C@@H]3[C@@H]4C[C@@H]5C[C@H]3C[C@@](NS(=O)(=O)C3CC3)(C5)C4)cc2)c(=O)c2ccc(Cl)cc2n1-c1ccccc1",
    "Result": "0.026 µM"
  },
  {
    "Sample Smiles": "COP(=O)(OC)OC1CCN(C(=O)[C@H]2CC[C@H](Nc3nccc(-n4ccc5c(OCCCS(C)(=O)=O)cccc54)n3)CC2)CC1",
    "Result": "0.0481 µM"
  },
  {
    "Sample Smiles": "CCN1CCN(C(=O)[C@H]2CC[C@H](Nc3nccc(-n4ccc5c(N6CCN(C(=O)CC#N)CC6)cccc54)n3)CC2)CC1",
    "Result": "0.0092 µM"
  },
  {
    "Sample Smiles": "CC(C)N1CC[C@@H](NC(=O)c2cc(-n3ncc4cc(Nc5ccccc5Cl)ccc43)cs2)C1",
    "Result": "0.2 to 1 µM"
  },
  {
    "Sample Smiles": "O[C@H]1CC[C@H](Nc2nccc(-c3cnc4ccccn34)n2)CC1",
    "Result": "0.0866 µM"
  }
]

* * *

pIC50: −log10 of the molar value.
Compiled record: pIC50 values for JNK1α1 (Homo sapiens) across several sources.

[
  {
    "Compound": "C[C@@H]1CC[C@@H](Nc2nc(Nc3ccc(N4CCN(C)CC4)cc3)ncc2C(N)=O)C[C@H]1O",
    "pIC50": "> 7.00"
  },
  {
    "Compound": "C[C@@H]1CC[C@@H](Nc2cc(NC(C)(C)C)ncc2C#N)C[C@H]1O",
    "pIC50": "< 6.00"
  },
  {
    "Compound": "C[C@@H]1CC[C@@H](Nc2cc(NC3CCCCC3)ncc2C(N)=O)C[C@H]1O",
    "pIC50": "< 6.00"
  },
  {
    "Compound": "O=C(Cn1c(=O)ccc2ccc(F)cc21)Nc1scc(Br)c1-c1ncn[nH]1",
    "pIC50": "> 7.00"
  },
  {
    "Compound": "CCCN(CCC)C(=O)n1ccc2c(C(=O)c3c[nH]c4ncc(-c5cccnc5)cc34)cccc21",
    "pIC50": "≥ 5.00"
  },
  {
    "Compound": "CNC(=O)c1cc(-n2ncc3cc(Nc4cccc(C)c4Cl)ncc32)cs1",
    "pIC50": "6.00 to 6.70"
  },
  {
    "Compound": "CC(=O)N1CC(NC(=O)c2cc(-n3ncc4cc(Nc5ccccc5Cl)cnc43)cs2)C1",
    "pIC50": "6.00 to 6.70"
  },
  {
    "Compound": "COCC(COC)NC(=O)c1cc(-n2ncc3nc(Oc4ccccc4Cl)ccc32)cs1",
    "pIC50": "< 6.00"
  },
  {
    "Compound": "C[C@@H]1CC[C@@H](Nc2cc(NC3C4C[C@H]43)ncc2C(N)=O)C[C@H]1O (some centres unmarked)",
    "pIC50": "< 6.00"
  },
  {
    "Compound": "CCCS(=O)(=O)Nc1ccc(F)c(C(=O)c2c[nH]c3ncc(-c4ccc(C(=O)N5CCOCC5)cc4)cc23)c1F",
    "pIC50": "≥ 5.00"
  },
  {
    "Compound": "O=C(Cc1cccc2cnccc12)Nc1ccsc1-c1nccs1",
    "pIC50": "5.00 to 7.00"
  },
  {
    "Compound": "C[C@@H]1CC[C@@H](Nc2nc(OC(C)(C)C)ncc2Br)C[C@H]1O",
    "pIC50": "6.00 to 6.30"
  },
  {
    "Compound": "COc1ccc(CC(=O)Nc2ccsc2-n2cc(C)cn2)cc1",
    "pIC50": "< 5.00"
  },
  {
    "Compound": "O=C(Nc1cccc(C(=O)c2c[nH]c3ncc(-c4cccnc4)cc23)c1)Nc1ccc(C(F)(F)F)cc1Cl",
    "pIC50": "≥ 5.00"
  },
  {
    "Compound": "COCCNC(=O)c1cc(-n2ncc3cc(Nc4ccccc4Cl)ncc32)cs1",
    "pIC50": "6.00 to 6.70"
  },
  {
    "Compound": "COC(=O)c1c(Cc2ccc(C(=O)N[C@@H]3[C@@H]4C[C@@H]5C[C@H]3C[C@@](NS(C)(=O)=O)(C5)C4)cc2)c(=O)c2cccnc2n1-c1ccccc1",
    "pIC50": 7.96
  },
  {
    "Compound": "O=C(Cc1ccc(C(F)(F)F)c2ncccc12)Nc1scc(Cl)c1-c1ncn[nH]1",
    "pIC50": "> 7.00"
  },
  {
    "Compound": "CNC(=O)c1cc(-n2ncc3cc(Nc4c(Cl)cccc4OC)ncc32)cs1",
    "pIC50": "< 6.00"
  },
  {
    "Compound": "O=C(c1c(F)ccc(NS(=O)(=O)c2ccccc2)c1F)c1c[nH]c2ncc(-c3cccnc3)cc12",
    "pIC50": "≥ 5.00"
  },
  {
    "Compound": "C[C@@H]1CC[C@@H](Nc2nc(OC(C)(C)C)ncc2C(N)=O)C[C@H]1O",
    "pIC50": "6.00 to 6.30"
  },
  {
    "Compound": "CCCCCCNC1CCN(S(=O)(=O)c2ccc(CNC(=O)c3ccc(Cl)cc3)s2)CC1",
    "pIC50": "6.15 to 7.00"
  },
  {
    "Compound": "Fc1ccccc1-c1nc(Nc2ccncc2)c2ccccc2n1",
    "pIC50": 3.78
  },
  {
    "Compound": "Oc1ccc(F)c(C(O)c2c[nH]c3ncc(-c4cccnc4)cc23)c1F (centres unmarked)",
    "pIC50": "≥ 5.00"
  },
  {
    "Compound": "CCCCNC(=O)Nc1ccc(F)c(C(=O)c2c[nH]c3ncc(-c4cccc(OC(F)(F)F)c4)cc23)c1",
    "pIC50": "≥ 5.00"
  },
  {
    "Compound": "CCCCCCCCCCNC1CCN(S(=O)(=O)c2ccc(CNC(=O)c3cccc(OC)c3)s2)CC1",
    "pIC50": "6.15 to 7.00"
  },
  {
    "Compound": "CS(=O)(=O)c1cccc(-c2cnc3[nH]cc(C(=O)c4cccc(O)c4F)c3c2)c1",
    "pIC50": "≥ 5.00"
  }
]
